# assay text: Metabolic stability in BALB/c mouse liver microsomes assessed as parent compound remaining measured after 60 mins in presence of NADPH by LC-MS/MS analysis
# Format: ADME, Microsome
# details: read-out: Stability
assay readout: remaining at 1 h (%)
Numbers only, in %.

[[record]]
compound_string = "O=C(Nc1ccc(N2CCC3(CCC3)CC2)c(C(F)(F)F)c1)c1ccc(CN2C[C@@H]3C[C@H]2CO3)nc1"
assay_readout = "remaining at 1 h"
measurement_units = "%"
recorded_value = 77


-- ask Return value of remaining at 1 h for input "O=C(Nc1ccc(N2CCC3(CCC3)CC2)c(C(F)(F)F)c1)c1ccc(C(=O)N2C[C@@H]3C[C@H]2CO3)nc1" , no commentary.
-- reply 84

* * *

Please go through the items and note down their CL/F.
# assay text: Clearance in female C57BL/6J mouse at 25 mg/kg, ip
# Format: ADME, organism-based
# details: in vivo
Give bare numbers, in mL/min/kg.

[[record]]
compound_string = "O=C(Nc1ccc(N2CCC3(CCC3)CC2)c(C(F)(F)F)c1)c1ccc(CN2C[C@@H]3C[C@H]2CO3)nc1"
recorded_value = 29.2


Now consider a different compound.
-- ask Give the measured CL/F for "O=C(Nc1ccc(N2CCC3(CCC3)CC2)c(C(F)(F)F)c1)c1ccc(C(=O)N2C[C@@H]3C[C@H]2CO3)nc1"
-- reply 20.2

* * *

# assay text: Half-life in female C57BL/6J mouse at 25 mg/kg, ip
# Format: ADME, organism-based
# details: in vivo
assay readout: half-life

[[record]]
compound_string = "O=C(Nc1ccc(N2CCC3(CCC3)CC2)c(C(F)(F)F)c1)c1ccc(C(=O)N2C[C@@H]3C[C@H]2CO3)nc1"
recorded_value = "1.4 h"


Let us move to another entry and its half-life.
-- ask Read the entry "O=C(Nc1ccc(N2CCC3(CCC3)CC2)c(C(F)(F)F)c1)c1ccc(CN2C[C@@H]3C[C@H]2CO3)nc1" and write its reported half-life.
-- reply 3.4 h

* * *

# experimental system: CYP2C9 (Homo sapiens, UniProt P11712)
# Sequence (P11712 whole entry): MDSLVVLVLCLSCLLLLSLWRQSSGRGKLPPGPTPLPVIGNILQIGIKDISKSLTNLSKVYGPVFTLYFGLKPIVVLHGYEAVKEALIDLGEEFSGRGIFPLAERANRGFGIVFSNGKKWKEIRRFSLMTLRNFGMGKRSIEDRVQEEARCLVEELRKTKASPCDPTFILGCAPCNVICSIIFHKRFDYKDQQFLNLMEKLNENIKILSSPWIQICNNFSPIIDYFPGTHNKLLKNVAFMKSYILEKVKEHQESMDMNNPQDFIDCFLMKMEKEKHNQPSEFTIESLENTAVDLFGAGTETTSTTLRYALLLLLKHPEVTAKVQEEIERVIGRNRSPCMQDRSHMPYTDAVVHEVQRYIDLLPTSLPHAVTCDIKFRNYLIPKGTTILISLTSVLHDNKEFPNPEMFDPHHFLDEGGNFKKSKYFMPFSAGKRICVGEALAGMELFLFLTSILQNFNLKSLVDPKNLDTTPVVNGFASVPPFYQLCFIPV
# assay text: Inhibition of CYP2C9 in human liver microsomes using tolbutamide as substrate at 10 uM preincubated for 5 mins followed by substrate addition and measured after 20 mins by LC-MS analysis relative to control
# Assay type: ADME, Microsome
# details: probe tolbutamide, time 25 min
Assignment: determine reported inhibition at 20 min, 10 µM for the given compounds.

[[record]]
compound_string = "O=C(Nc1ccc(N2CCC3(CCC3)CC2)c(C(F)(F)F)c1)c1ccc(C(=O)N2C[C@@H]3C[C@H]2CO3)nc1"
recorded_value = "56.6%"


Here is another compound to look at.
-- ask Report inhibition at 20 min, 10 µM, nothing else, for this compound: "O=C(Nc1ccc(N2CCC3(CCC3)CC2)c(C(F)(F)F)c1)c1ccc(CN2C[C@@H]3C[C@H]2CO3)nc1"
-- reply 66.4%

* * *

Kindly supply the reported EC50 values for the records listed here.
# Tested on: Tai Forest ebolavirus
# assay text: Antiviral activity against pseudotyped Tai Forest ebolavirus expressing glycoprotein infected in human A549 cells assessed as inhibition of viral entry incubated for 48 hrs by Neolite reporter gene assay
# Format: functional, organism-based
# details: A549, 48 h
Numbers only, in nM.

[[record]]
compound_string = "O=C(Nc1ccc(N2CCC3(CCC3)CC2)c(C(F)(F)F)c1)c1ccc(C(=O)N2C[C@H]3C[C@@H]2CO3)nc1"
assay_readout = "EC50"
recorded_value = 130

[[record]]
compound_string = "O=C(Nc1ccc(N2CCC3(CCC3)CC2)c(C(F)(F)F)c1)c1ccc(C(=O)N2C[C@@H]3C[C@H]2CO3)nc1"
assay_readout = "EC50"
recorded_value = 110

[[record]]
compound_string = "O=C(Nc1ccc(N2CCC3(CCC3)CC2)c(C(F)(F)F)c1)c1ccc(CN2C[C@@H]3C[C@H]2CO3)nc1"
assay_readout = "EC50"
recorded_value = 290


List reported EC50 for each of these molecules:
1. O=C(Nc1ccc(N2CCC3(CCC3)CC2)c(C(F)(F)F)c1)c1ccc(CN2C[C@H]3C[C@@H]2CO3)nc1
2. CC1CCN(c2ccc(NC(=O)c3ccc(CN4CCOCC4)cc3)cc2C(F)(F)F)CC1

-- reply
1: 170; 2: 170

* * *

# System: Zaire ebolavirus
# assay text: Antiviral activity against pseudotyped Zaire ebolavirus expressing glycoprotein infected in human A549 cells assessed as inhibition of viral entry incubated for 48 hrs by Neolite reporter gene assay
# Assay type: functional, organism-based
# details: A549, 48 h
Exercise: state measured pEC50 for each of the compounds provided.
Give bare numbers, as −log10 of the molar value.

Recorded results for 2 compounds are shown here.
[[record]]
compound_string = "CC1CCN(c2ccc(NC(=O)c3ccc(CN4CCOCC4)cc3)cc2C(F)(F)F)CC1"
assay_readout = "pEC50"
recorded_value = 6.66

[[record]]
compound_string = "O=C(Nc1ccc(N2CCC3(CCC3)CC2)c(C(F)(F)F)c1)c1ccc(C(=O)N2C[C@H]3C[C@@H]2CO3)nc1"
assay_readout = "pEC50"
recorded_value = 6.64


For each of the compounds below, note its pEC50.
1. O=C(Nc1ccc(N2CCC3(CCC3)CC2)c(C(F)(F)F)c1)c1ccc(C(=O)N2C[C@@H]3C[C@H]2CO3)nc1
2. O=C(Nc1ccc(N2CCC3(CCC3)CC2)c(C(F)(F)F)c1)c1ccc(CN2C[C@@H]3C[C@H]2CO3)nc1
3. O=C(Nc1ccc(N2CCC3(CCC3)CC2)c(C(F)(F)F)c1)c1ccc(CN2C[C@H]3C[C@@H]2CO3)nc1

-- reply
6.80
6.92
6.68

* * *

Answer each item with its documented selectivity ratio.
# assay text: Selectivity index, ratio of CC50 for human HeLa cells to EC50 for antiviral activity against wildtype Ebolavirus infected in human HeLa cells
# Assay type: toxicity, cell-based
# details: read-out: Ratio CC50/EC50
Give bare numbers.

Answered examples (4):
[[record]]
compound_string = "O=C(Nc1ccc(N2CCC3(CCC3)CC2)c(C(F)(F)F)c1)c1ccc(C(=O)N2C[C@@H]3C[C@H]2CO3)nc1"
assay_readout = "selectivity ratio"
recorded_value = 65

[[record]]
compound_string = "O=C(Nc1ccc(N2CCC3(CCC3)CC2)c(C(F)(F)F)c1)c1ccc(C(=O)N2C[C@H]3C[C@@H]2CO3)nc1"
assay_readout = "selectivity ratio"
recorded_value = 49

[[record]]
compound_string = "O=C(Nc1ccc(CN2CCOCC2)cc1)Nc1ccc(C23CC4CC(CC(C4)C2)C3)cc1"
assay_readout = "selectivity ratio"
recorded_value = 24

[[record]]
compound_string = "CC1CCN(c2ccc(NC(=O)c3ccc(CN4CCOCC4)cc3)cc2C(F)(F)F)CC1"
assay_readout = "selectivity ratio"
recorded_value = 77


Continue with the next molecule.
-- ask Note down selectivity ratio recorded for "O=C(Nc1ccc(C23CC4CC(CC(C4)C2)C3)cc1)c1ccc(CN2C[C@@H]3C[C@H]2CO3)cc1"
-- reply 17

* * *

# experimental system: CYP1A2 (Homo sapiens, UniProt P05177)
# Sequence (P05177 whole entry): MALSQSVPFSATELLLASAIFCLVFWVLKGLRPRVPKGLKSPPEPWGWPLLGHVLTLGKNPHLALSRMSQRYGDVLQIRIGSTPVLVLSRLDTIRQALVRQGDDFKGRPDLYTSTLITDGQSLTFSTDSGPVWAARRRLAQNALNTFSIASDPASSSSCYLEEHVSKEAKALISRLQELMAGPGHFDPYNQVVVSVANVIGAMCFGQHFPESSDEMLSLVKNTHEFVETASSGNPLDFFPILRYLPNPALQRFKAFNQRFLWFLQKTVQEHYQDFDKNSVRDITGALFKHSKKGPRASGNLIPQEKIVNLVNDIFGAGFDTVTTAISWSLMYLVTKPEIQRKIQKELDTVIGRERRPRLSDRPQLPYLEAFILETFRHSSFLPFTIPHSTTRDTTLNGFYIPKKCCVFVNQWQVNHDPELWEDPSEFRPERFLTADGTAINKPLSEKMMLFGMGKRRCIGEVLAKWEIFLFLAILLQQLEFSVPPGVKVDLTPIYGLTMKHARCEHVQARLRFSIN
# assay text: Inhibition of CYP1A2 in human liver microsomes using phenacetin as substrate at 10 uM preincubated for 5 mins followed by substrate addition and measured after 20 mins by LC-MS analysis relative to control
# Assay type: ADME, Microsome
# details: probe phenacetin, time 25 min
assay readout: inhibition at 20 min, 10 µM
Just the number plus its unit, please.

[[record]]
compound_string = "O=C(Nc1ccc(N2CCC3(CCC3)CC2)c(C(F)(F)F)c1)c1ccc(CN2C[C@@H]3C[C@H]2CO3)nc1"
assay_readout = "inhibition at 20 min, 10 µM"
recorded_value = "5.4%"


Turning to the following molecule.
-- ask Consider the molecule "O=C(Nc1ccc(N2CCC3(CCC3)CC2)c(C(F)(F)F)c1)c1ccc(C(=O)N2C[C@@H]3C[C@H]2CO3)nc1" . State its measured inhibition at 20 min, 10 µM.
-- reply 13.5%

* * *

# System: HeLa
# assay text: Cytotoxicity against human HeLa cells by Celltiter-Glo luminescent cell viability assay
# Assay type: toxicity, cell-based
Binary label based on CC50 with cut-off 20 µM: below gives 1 (yes), not below gives 0 (no).

-- ask Lab log: compare recorded CC50 with 20 µM; is it strictly lower for "O=C(Nc1ccc(C23CC4CC(CC(C4)C2)C3)cc1)c1ccc(CN2C[C@@H]3C[C@H]2CO3)cc1" ?
-- reply 1 (yes)

-- ask # check: CC50 < 20 µM for "O=C(Nc1ccc(N2CCC3(CCC3)CC2)c(C(F)(F)F)c1)c1ccc(C(=O)N2C[C@@H]3C[C@H]2CO3)nc1"
-- reply 0 (no)

* * *

Would you mind telling me the reported Cmax of each entry?
# assay text: Cmax in female C57BL/6J mouse at 50 mg/kg, ip
# Format: ADME, organism-based
# details: in vivo
Answers are plain numbers, in ng/mL.

[[record]]
compound_string = "O=C(Nc1ccc(N2CCC3(CCC3)CC2)c(C(F)(F)F)c1)c1ccc(CN2C[C@@H]3C[C@H]2CO3)nc1"
assay_readout = "Cmax"
measurement_units = "ng/mL"
recorded_value = 6790


Turning now to a further molecule:
-- ask Dear colleague, please send me the reported Cmax for "O=C(Nc1ccc(N2CCC3(CCC3)CC2)c(C(F)(F)F)c1)c1ccc(C(=O)N2C[C@@H]3C[C@H]2CO3)nc1" when you can.
-- reply 14600
